EC50 values for the compounds below.
- System: HIV-1 Y181C
- Test Protocol: microbe, parasite or virus in culture
- Format: cell-based, human immunodeficiency virus type 1 (HIV-1)
- Measurement Setup: Human immunodeficiency virus 1, read-out: EC50 Y181C (nM), Y181C mutant

- Chemical Structure: "Cc1cc(C)c(Oc2nc(Nc3ccc(C#N)cc3)nc3cc[nH]c23)c(C)c1"
  Experimental Result: "< 10 nM"
- Chemical Structure: "Cc1cc(C#N)cc(C)c1Oc1nc(Nc2ccc(C#N)cc2)nc2cc[nH]c12"
  Experimental Result: "< 10 nM"
- Chemical Structure: "Cc1cc(C)c(Oc2nc(Nc3ccc(C4CC4)cc3)nc3[nH]cnc23)c(C)c1"
  Experimental Result: "> 100 nM"

Please give the measured EC50 for this compound: Cc1cc(C)c(Oc2nc(Nc3ccc(F)cc3)nc3[nH]cnc23)c(C)c1
< 10 nM
